Origin of measurements: ChEMBL document CHEMBL5058577

Test system: HEK-293T
PROTOCOL_SUMMARY: Multiplex assay against HEK293T
Format: toxicity, cell-based
ASSAY_SETUP: human, 12 h, 10 µM, compound concentration 10 uM, replicate 1
Non-standard residues stand in square brackets, D forms with d. Residues, ends and D or L forms follow the SMILES beside them.
Label TRUE when Population Hoechst High Intensity Objects (%) is strictly below 8%; otherwise label FALSE.

Please review the entries below; each comes with its answer.
COMPOUND	TARGET_SYSTEM	CATEGORY_LABEL
CC(C)(O)C(=O)N1CCN(c2ccc(C(F)(F)F)c(C3=C(c4c[nH]c5ccccc45)C(=O)NC3=O)c2)CC1	HEK-293T	FALSE
CC(C)C[C@@H]1NC(=O)[C@@H](C(C)C)NC(=O)[C@@H]2CCCN2C(=O)[C@@H](CC(=O)O)NC(=O)[C@@H](Cc2c[nH]c3ccccc23)NC1=O [BQ-123] (cyclo(L[dW][dD]P[dV]))	HEK-293T	TRUE
C[C@H](NC(=O)CNC(=O)c1cccc(Cl)c1)c1ccccc1	HEK-293T	TRUE
CCCCC[C@H](O)/C=C/[C@H]1[C@H](O)CC(=O)[C@@H]1CCCCCCC(=O)O	HEK-293T	TRUE
CCCCCCNC(=O)Nc1ccc(S(=O)(=O)Nc2ccc(CCNC[C@H](O)COc3ccc(O)cc3)cc2)cc1	HEK-293T	FALSE
COc1cc2nc(N3CCN(C(=O)c4ccco4)CC3)nc(N)c2cc1OC.Cl [PRAZOSIN HYDROCHLORIDE]	HEK-293T	FALSE
O=C(NCCNCC(O)COc1ccc(O)cc1)N1CCOCC1.O=C(NCCNCC(O)COc1ccc(O)cc1)N1CCOCC1.O=C(O)/C=C/C(=O)O (stereo not given) [XAMOTEROL FUMARATE]	HEK-293T	TRUE
C[C@@H]1CC(=O)Nc2cccc(-c3ccc4c(c3)c(-c3cnn(C)c3)nn4C)c2N1	HEK-293T	TRUE

[in] State whether 8% exceeds Population Hoechst High Intensity Objects (%) recorded for COC(c1ccccc1)(c1ccccc1)[C@H](Oc1nc(C)cc(C)n1)C(=O)O .
[out] TRUE

[in] A record lists CCC(=O)OCC(=O)[C@@]1(OC(=O)CC)[C@@H](C)C[C@H]2[C@@H]3CCC4=CC(=O)C=C[C@]4(C)[C@@]3(Cl)[C@@H](O)C[C@@]21C [BECLOMETHASONE DIPROPIONATE] . Is its Population Hoechst High Intensity Objects (%) below 8%?
[out] FALSE

[in] is_below(Population Hoechst High Intensity Objects (%), 8%) for COc1cc(Nc2ncc3c(n2)-c2ccc(Cl)cc2C(c2c(F)cccc2OC)=NC3)ccc1C(=O)O ?
[out] FALSE

[in] Lab note: confirm whether the reported Population Hoechst High Intensity Objects (%) for this compound is below 8%, equality not counting. compound: Cc1sc2c(c1C)C(c1ccc(Cl)cc1)=N[C@H](CC(=O)OC(C)(C)C)c1nnc(C)n1-2
[out] TRUE
